tested on: COLO 205; test: NCI tumour cell line growth inhibition, 48 h
The source made the active and inactive calls. No stated cut-off is given here; in the data, active = GI50 up to about 1.1 µM and inactive = higher.
Measured GI50 accompanies every entry in the list below.

Write down GI50 measured for item C/C=C/C=N/N(C(=O)c1cc([N+](=O)[O-])cc([N+](=O)[O-])c1)C1=NN=C(c2ccccc2)C(c2ccccc2)N1 (stereo not drawn)
30.5 µM (inactive)

---

tested on: CAKI-1; assay: NCI tumour cell line growth inhibition, 48 h
The source made the active and inactive calls. Rule as the data show it: active = GI50 up to about 1.1 µM and inactive = higher.
Items are presented alongside their recorded GI50.

Consider the reported GI50 for these molecules:
CC(C)N(C(=O)C12C3C4C1C1C2C3C41C#N)C(C)C (centres undefined)
> 100 µM (inactive)
CN(/N=C/c1ccnc2ccccc12)c1ccc([N+](=O)[O-])cc1[N+](=O)[O-]
> 100 µM (inactive)
C/C=C/c1cc2c(c(=O)o1)C(=O)[C@@H](O)[C@H](C)O2
17.3 µM (inactive)
COc1ccc(NC(=S)C#N)cc1
> 100 µM (inactive)
COc1ccc(N(C(=O)OC(C)(C)C)[C@@H]2C(C)=C[C@H]([S@@+]([O-])c3ccc(C)cc3)[C@@H]3C(=O)N(C)C(=O)[C@@H]32)cc1
25.3 µM (inactive)
C[N+]1(C)C/C(=C\c2ccncc2)C(=O)/C(=C/c2ccncc2)C1
> 100 µM (inactive)
CCCCC1CC(c2cccc([N+](=O)[O-])c2)=NO1 (centres undefined)
63.5 µM (inactive)
C/C(CN1C(=O)c2ccccc2C1=O)=N\NS(=O)(=O)c1ccc(F)cc1
> 100 µM (inactive)

Determine from records and report GI50 for `COc1ccc(/C=C/C(=O)c2c(-c3ccccc3)nn(C)c(=O)c2N2CCCCC2)cc1`
31.2 µM (inactive)

Give GI50 for the following molecule: O=c1cccccc1O [TROPOLONE]
83.6 µM (inactive)

---

tested on: Malme-3M; test: NCI tumour cell line growth inhibition, 48 h
The source made the active and inactive calls. Cut-off read from the data, not from the text of the source: active = GI50 up to about 1.1 µM and inactive = higher.
assay.metric: GI50

CN(CCNC(=O)c1nn(-c2ccc(Cl)cc2Cl)c2c1Cc1ccccc1-2)CCNC(=O)c1nn(-c2ccc(Cl)cc2Cl)c2c1Cc1ccccc1-2
1.42 µM (inactive)
c1ccc(CCN(Cc2nc3ccccc3[nH]2)Cc2nc3ccccc3[nH]2)cc1
21.6 µM (inactive)
S=C(S)NCCN1CCNCC1
25.4 µM (inactive)
CCCCC1CC(c2cccc([N+](=O)[O-])c2)=NO1 (stereo not drawn)
> 100 µM (inactive)
O=C(O)CN1C(=O)OC(c2ccccc2)C1=O (stereo not drawn)
> 100 µM (inactive)

Return value of GI50 for input N#Cc1ccnc(C(=O)N2CCCC2C(=O)O)c1 (stereo not drawn) , no commentary.
> 100 µM (inactive)

Name the recorded GI50 of the molecule listed here: `CCCCCCCCCCCC(=O)OCCOCCOCCOCCOCCOC(=O)CCCCCCCCCCC`
> 100 µM (inactive)

Hello, please tell me recorded GI50 for this one: `O=S(=O)(O)c1ccc(-c2c3nc(c(-c4ccc(S(=O)(=O)O)cc4)c4ccc([nH]4)c(-c4ccc(S(=O)(=O)O)cc4)c4nc(c(-c5ccc(S(=O)(=O)O)cc5)c5ccc2[nH]5)C=C4)C=C3)cc1`
> 100 µM (inactive)

---

tested on: NCI-H23; experiment: NCI tumour cell line growth inhibition, 48 h
Active and inactive are the calls of the source. Rule as the data show it: active = GI50 up to about 1.1 µM and inactive = higher.
assay.metric: GI50

O=C1C=C(Cl)C(=O)C(c2ccc(Cl)cc2)=C1
23.2 µM (inactive)
COc1ccc(Nc2nc3ccccc3nc2-c2cccs2)cc1
> 100 µM (inactive)
CS(C)(=O)=N/C=C\C(=O)C(Cl)(Cl)Cl
> 100 µM (inactive)
O=C(/C(=C/c1ccc(O)cc1)c1ccccc1)c1ccccc1
15 µM (inactive)
Oc1nc(S)nc2c1CCCN2
> 100 µM (inactive)

For the next question, use this molecule.
Answer with the recorded GI50 for the molecule listed here: COc1nc(NC2OCC(OC(C)=O)C(OC(C)=O)C2OC(C)=O)c(/N=C\C=N\c2c(NC3OCC(OC(C)=O)C(OC(C)=O)C3OC(C)=O)nc(OC)n(C)c2=O)c(=O)n1C (stereo unspecified)
> 100 µM (inactive)

---

system: RXF 393; test: NCI tumour cell line growth inhibition, 48 h
The source made the active and inactive calls. Rule as the data show it: active = GI50 up to about 1.1 µM and inactive = higher.
assay.metric: GI50

O=C1C2=Cc3ccccc3OC2(O)Oc2ccccc21 (centres undefined)
> 100 µM (inactive)
CC(C)NCC(O)c1ccc(O)c2ncccc12 (centres undefined)
91 µM (inactive)
O=C1CC23CC(=O)CC2(C1)c1ccccc1C3=O (centres undefined)
40.6 µM (inactive)

Give GI50 for the following compound: `CCOC(=O)/C=C(/C(=O)OCC)n1ccc(=O)[nH]c1=O`
4.21 µM (inactive)

Report GI50, nothing else, for this compound: COc1cc(OC2OC(COC(=O)c3cc(O)c(O)c(O)c3)C(O)C(O)C2O)ccc1O (centres undefined)
> 100 µM (inactive)

Please supply the value of reported GI50 for the item `CC#Cc1c(C#CC)c(OC)c2c(c1OC)C(=O)c1ccccc1C2=O`
10.7 µM (inactive)

Give recorded GI50. `CC(=O)Oc1c(Br)ccc2cc(C(Br)Br)c(C(=O)c3ccccc3)nc12`
17.9 µM (inactive)

Return GI50 for the following compound: `CCc1ccc(/N=C\c2cc(OC)c(OC)c(OC)c2)cc1`
> 100 µM (inactive)

Output measured GI50 for this item: `C=CC[N+](CCO)(CCO)CCCCCCCCCCCCCCCCCC`
2.19 µM (inactive)

---

test system: NCI-H23; experiment: NCI tumour cell line growth inhibition, 48 h
Calls of active or inactive are those of the source. Rule as the data show it: active = GI50 up to about 1.1 µM and inactive = higher. Where a SMILES comes first, the peptide text is derived from it. The star is where a group is joined. Cbz = O=C(OCc1ccccc1)*; Bn = c1ccc(C*)cc1
assay.metric: GI50

Tell us which GI50 value is on record for `N#CCc1nnc(N)o1`
> 100 µM (inactive)

Output measured GI50 for this item: COC(=O)[C@]1(c2cc3ccccc3n2S(=O)(=O)c2ccccc2)CC2CCC1NC2 (stereo not given in full)
15.2 µM (inactive)

Supply measured GI50 of `CN(C)CCCNC(=O)CCNC(=O)c1cc(NC(=O)c2cc(NC(=O)c3cc(NC(=O)c4nc(NC(=O)CCCNC(=O)c5cc(NC(=O)c6cc(NC(=O)c7cc(NC(=O)c8nccn8C)cn7C)cn6C)cn5C)cn4C)cn3C)cn2C)cn1C` in your reply.
> 100 µM (inactive)

Retrieve GI50 measured for COC(=O)C(Cc1ccc(O)cc1)NC(=O)C(COCc1ccccc1)NC(=O)OCc1ccccc1 (stereo not given) (Cbz-Ser(Bn)-Tyr-OMe; configuration not given here) and print it.
20.1 µM (inactive)

Given `CCCCOC(=O)NC(Nc1ccc(S(N)(=O)=O)cc1)(C(F)(F)F)C(F)(F)F` , respond with its GI50.
> 100 µM (inactive)

---

system: KM-20L2; test: NCI tumour cell line growth inhibition, 48 h
Active and inactive are the calls of the source. No stated cut-off is given here; in the data, active = GI50 up to about 1.1 µM and inactive = higher.
assay.metric: GI50

Use these answered entries as a reference point.
COC(=O)C1C=NNC1C(=O)OC (stereo not drawn)
> 100 µM (inactive)
CCN1CCC(O)(c2ccc(OC)cc2)C(C(=O)c2ccc(OC)cc2)C1 (stereo not drawn)
18.6 µM (inactive)

Look up GI50 of CC(C)=C1CCC(CN(C)C)C1=O (stereo not drawn) and report it.
13.7 µM (inactive)

---

tested on: SN12C; assay: NCI tumour cell line growth inhibition, 48 h
Activity calls are given as the source filed them. No stated cut-off is given here; in the data, active = GI50 up to about 1.1 µM and inactive = higher.
assay.metric: GI50

CCOC(=O)c1c(C(F)(F)F)oc2c1ccc1nc3nonc3nc12
17.4 µM (inactive)

Tell me its GI50 given `CN(C)c1ccc(/C=C(\NC(=O)c2ccccc2)C(=O)Nc2ccccc2C(=O)NCc2ccccc2)cc1` as the entry.
> 100 µM (inactive)

Specify reported GI50 for the compound shown: C1OCC2S[C@@H]3COCO[C@@H]3C2O1 (stereo partly specified)
> 100 µM (inactive)

Output GI50 of COP(=O)(OC)C(Nc1ccc(Cc2ccc(NC(c3ccco3)P(=O)(OC)OC)cc2)cc1)c1ccco1 (stereo unspecified)
97.1 µM (inactive)

Please supply the value of reported GI50 for the item CN(C(=O)c1ccccc1)C1CCCC(=O)CC1 (stereo unspecified)
> 100 µM (inactive)

Specify measured GI50 for C=C(C)C12CC(COC(=O)c3ccccc3)C34OC5(OC1C3C1OC1(CO)C(O)C1(O)C(OC(=O)c3ccccc3)C(C)C(C(C)CCCCCCC5O)C14)O2 (stereo unspecified) .
37.8 µM (inactive)

Tell me measured GI50 for O=C(C#Cc1cn(C2CC(O)C(CO)O2)c(=O)[nH]c1=O)c1ccccc1 (stereo unspecified) please.
31.8 µM (inactive)

Output measured GI50 for this item: `COc1cc2nc(-c3c(F)cccc3F)n(Cc3c(F)cccc3F)c2cc1Cc1c(F)cccc1F`
> 69.8 µM (inactive)

Numbers sourced from ChEMBL document CHEMBL1201862.
